test: qHTS assay to test for compound auto fluorescence at 590 nm (red) in HepG2 cell free culture (AID 720684); note: % is set by controls: 0 for no effect and ±100 for the full control effect
protocolConditions: cell-free medium autofluorescence, red 540/590 nm; series mostly up to 91.3 µM
Active and inactive are the calls of the source. Calls come from the whole dose curve; as a rule, active = well fitted curve in the direction sought with a large enough effect in the repeat runs; inconclusive = weak or mixed curves; inactive = flat fitted curve, though single readings scatter.
experimentalEndpoint: fluorescence, % of Rose Bengal

Reference set, count: 5
1. CC/C(=N\OC/C=C/Cl)C1=C(O)CC(C2CCOCC2)CC1=O (stereo unspecified) : inactive
2. N#Cc1ccc(Cl)cc1 : inactive
3. Cl/C=C\C[N+]12CN3CN(CN(C3)C1)C2 : inactive
4. Clc1cccc2ccccc12 : inactive
5. CO[C@@H]1[C@H](OC(=O)NC(=O)CCl)CC[C@]2(CO2)[C@H]1[C@@]1(C)O[C@@H]1CC=C(C)C : -0.153% [at 18.6 µM] (inactive)

Switching to the query record.
## Task I'd like to know its fluorescence, % of Rose Bengal. The compound in question is C/C(=C\c1ccccc1)[N+](=O)[O-]
## Result inactive

----------
test: qHTS assay to identify small molecule antagonists of the thyroid receptor (TR) signaling pathway (AID 743065); note: nearly all actives have a fitted effect of over 55% in size
protocolConditions: GH3.TRE-Luc, T3-stimulated luciferase inhibition, 23.5 h; series mostly up to 70.3 µM
Text: U.S. Tox21 Program National Center for Advancing Translational Sciences [NCATS] NIH Chemical Genomics Center [NCGC] U.S. Environmental Protection Agency [EPA] National Institutes of Environmental Health Sciences [NIEHS] National Toxicology Program [NTP] U.S. Food and Drug Administration [FDA] Tox21 Assay Overview: Thyroid receptor (TR), a nuclear hormone receptor, plays an important role in development, proliferation, differentiation, metabolism, brain function, and cardiovascular system. […]
Inconclusive results are not listed. Calls of active or inactive are those of the source. Calls come from the whole dose curve; as a rule, active = well fitted inhibition curve with a large enough effect in the repeat runs; inconclusive = weak or mixed curves; inactive = no such curve, though single readings can be large or run the other way.
Please answer using one outcome listed in yes (1) = active, no (0) = inactive

1. COc1nn(CSP(=S)(OC)OC)c(=O)s1 : yes (1)
2. O=C(NC(=O)c1c(F)cccc1F)Nc1ccc(OC(F)(F)C(F)OC(F)(F)F)c(Cl)c1 (stereo not drawn) : no (0)
3. CCOP(=S)(Oc1ccc([N+](=O)[O-])cc1)c1ccccc1 (stereo not drawn) : no (0)
4. c1ccc(C2CC2)c(OCC2=NCCN2)c1 : no (0)
5. CCCCNP(N)(N)=S : no (0)

## Task Outcome? COC1=CC(=O)O[C@@H](CCc2ccccc2)C1
## Result no (0)

## Task Field entry: IC(I)=C(I)I
## Result yes (1)

----------
test: A CellTox Green Cytotoxicity Assay to monitor cytotoxicity in HepG2 cells - 40 hour (AID 1224879); note: nearly all actives have a fitted effect of over 40% in size
protocolConditions: CellTox Green fluorescence; series mostly up to 76.8 µM
Results filed as inconclusive are left out. Activity calls are given as the source filed them. The call rests on the fitted dose curve; in most records, active means well fitted activation curve with a large enough effect in the repeat runs; inconclusive means weak or mixed curves; inactive means flat fitted curve, though single readings scatter.
Please answer using one outcome listed in T = active, F = inactive

1. O=C(O)C1(c2ccc3c(c2)OC[C@H](Cc2ccc(-c4ccccc4)cc2)[C@H]3O)CCCC1 : T
2. CCO[C@H]1O[C@@H]2OC3(C)CC[C@H]4[C@H](C)CC[C@@H]([C@H]1C)[C@@]24OO3 : F
3. COC(=O)c1cncn1C(C)c1ccccc1 (centres undefined) : F
4. Brc1ccccc1 : F
5. CS/C(C)=N/OC(=O)N(C)SN(C)C(=O)O/N=C(\C)SC : T
6. COC1=CC(=O)O[C@@H](CCc2ccccc2)C1 : F
7. CN1[C@@H]2CC[C@H]1CC(OC(=O)c1cc(Cl)cc(Cl)c1)C2 (some centres undefined) : T
8. CCOP(=S)(Oc1ccc([N+](=O)[O-])cc1)c1ccccc1 (centres undefined) : F
9. CCOP(=O)(OCC)Oc1ccc([N+](=O)[O-])cc1 : F
10. O=C(NC(=O)c1c(F)cccc1F)Nc1ccc(OC(F)(F)C(F)OC(F)(F)F)c(Cl)c1 (centres undefined) : F

# evaluate next
## Task Outcome? CC(Cl)C(C)Cl (centres undefined)
## Result F

----------
testedOn: Cytochrome P450 2D6 (Homo sapiens) (UniProt P10635)
Sequence (P10635 whole entry, looked up): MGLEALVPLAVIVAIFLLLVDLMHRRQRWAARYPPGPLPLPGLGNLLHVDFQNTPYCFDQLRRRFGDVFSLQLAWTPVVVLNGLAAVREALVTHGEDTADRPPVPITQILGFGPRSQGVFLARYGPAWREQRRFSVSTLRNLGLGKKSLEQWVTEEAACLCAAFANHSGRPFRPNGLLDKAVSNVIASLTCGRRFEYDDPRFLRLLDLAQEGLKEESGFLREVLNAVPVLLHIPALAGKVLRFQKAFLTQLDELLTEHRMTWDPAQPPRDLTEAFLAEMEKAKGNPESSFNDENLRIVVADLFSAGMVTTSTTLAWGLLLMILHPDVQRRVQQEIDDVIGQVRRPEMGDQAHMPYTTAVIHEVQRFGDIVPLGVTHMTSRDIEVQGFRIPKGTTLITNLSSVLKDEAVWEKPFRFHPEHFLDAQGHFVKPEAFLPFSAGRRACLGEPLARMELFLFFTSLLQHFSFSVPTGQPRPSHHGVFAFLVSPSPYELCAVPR
test: Cytochrome P450 Family 2 Subfamily D Member 6 (CYP2D6) small molecule antagonists: luciferase reporter qHTS assay (AID 1671196); note: nearly all actives have a fitted effect of over 50% in size
protocolConditions: P450-Glo CYP2D6 enzyme assay, luciferin luminescence, 1 h; series mostly up to 115 µM
Records with an inconclusive call do not appear. Calls of active or inactive are those of the source. Calls come from the whole dose curve; as a rule, active = well fitted inhibition curve with a large enough effect in the repeat runs; inconclusive = weak or mixed curves; inactive = no such curve, though single readings can be large or run the other way.
Please answer using one outcome listed in YES for active, NO for inactive

Study these solved cases before continuing.
1) O=C=Nc1ccc(Cl)cc1 : NO
2) CC(=O)c1cc2c(cc1C)C(C)(C)C(C)CC2(C)C (stereo not drawn) : NO

## Task Outcome? CCCCC(CC)COP(=O)(Oc1ccccc1)Oc1ccccc1 (stereo not drawn)
## Result NO

## Task Field entry: O=Cc1ccc(Cl)cc1Cl
## Result NO

## Task Field entry: C=CC(=O)OCC(C)C
## Result NO

## Task Field entry: COC1=CC(=O)O[C@@H](CCc2ccccc2)C1
## Result NO

## Task Field entry: c1ccc(C2CC2)c(OCC2=NCCN2)c1
## Result YES

## Task Field entry: CC(C)(Cl)[N+](=O)[O-]
## Result NO

## Task Field entry: O=C1NCN(c2ccccc2)C12CCN(CCCOc1ccc(F)cc1)CC2
## Result YES

## Task Field entry: CNP(=O)(OC)Oc1ccc(C(C)(C)C)cc1Cl (stereo not drawn)
## Result YES

## Task Field entry: Clc1cccc2ccccc12
## Result NO

## Task Field entry: O=C(O)C(F)(F)C(F)(F)C(F)(F)C(F)(F)C(F)(F)C(F)(F)C(F)(F)C(F)(F)C(F)(F)F
## Result NO

## Task Field entry: O=[N+]([O-])c1cc(C(F)(F)F)cc([N+](=O)[O-])c1Cl
## Result YES

----------
testedOn: Estrogen receptor (Homo sapiens) (UniProt P03372)
Sequence (P03372 whole entry, looked up): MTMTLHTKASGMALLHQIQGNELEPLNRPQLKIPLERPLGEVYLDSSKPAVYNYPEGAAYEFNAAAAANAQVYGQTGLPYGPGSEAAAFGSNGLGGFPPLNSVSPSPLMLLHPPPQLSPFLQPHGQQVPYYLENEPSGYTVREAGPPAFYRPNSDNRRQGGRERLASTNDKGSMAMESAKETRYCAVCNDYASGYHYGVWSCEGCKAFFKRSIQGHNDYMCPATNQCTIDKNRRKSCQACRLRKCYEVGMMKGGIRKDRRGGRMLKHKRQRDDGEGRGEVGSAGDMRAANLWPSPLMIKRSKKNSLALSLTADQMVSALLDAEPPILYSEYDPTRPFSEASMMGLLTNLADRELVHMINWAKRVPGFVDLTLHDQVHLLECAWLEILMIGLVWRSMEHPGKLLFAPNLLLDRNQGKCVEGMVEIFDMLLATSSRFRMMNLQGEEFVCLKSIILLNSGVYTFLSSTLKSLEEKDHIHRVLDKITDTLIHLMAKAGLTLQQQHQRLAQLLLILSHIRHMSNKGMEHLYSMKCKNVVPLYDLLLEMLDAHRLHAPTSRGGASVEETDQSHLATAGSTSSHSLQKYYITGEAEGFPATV
test: qHTS assay to identify small molecule antagonists of the estrogen receptor alpha (ER-alpha) signaling pathway using the BG1 cell line in the presence of 0.1 nM 17-beta-estradiol (AID 1259244); note: % is set by controls: 0 for no effect and ±100 for the full control effect; nearly all actives have a fitted effect of over 50% in size
protocolConditions: VM7Luc4E2 (BG1) ERE-luciferase, antagonist mode, 0.1 nM E2, 22 h; series mostly up to 92.4 µM
Results filed as inconclusive are left out. Activity calls are given as the source filed them. The call rests on the fitted dose curve; in most records, active means well fitted inhibition curve with a large enough effect in the repeat runs; inconclusive means weak or mixed curves; inactive means no such curve, though single readings can be large or run the other way.
Please answer using one outcome listed in active, inactive

Study these solved cases before continuing.
1) CCCCCCCCCCOC(=O)c1ccccc1C(=O)OCCCCCCCCCC : inactive
2) Cc1cc(=O)[nH]o1 : inactive
3) Clc1cc(C(Cl)(Cl)Cl)cnc1Cl : inactive
4) CCCN(CCCl)c1c([N+](=O)[O-])cc(C(F)(F)F)cc1[N+](=O)[O-] : inactive
5) COP(=S)(Oc1cc(Cl)c(Br)cc1Cl)c1ccccc1 (stereo unspecified) : inactive

## Task Outcome? C[C@]12CC[C@H]3[C@@H](CCC4=CC(=O)CC[C@@H]43)[C@@H]1CC[C@@H]2OC(=O)CCC1CCCCC1
## Result inactive

## Task Field entry: C/C(=C\c1ccccc1)[N+](=O)[O-]
## Result inactive

----------
testedOn: Acetylcholinesterase (Homo sapiens)
test: Acetylcholinesterase (AChE) small molecule antagonists: enzyme-based qHTS assay with human liver microsomes (AID 1347399); note: nearly all actives have a fitted effect of over 60% in size
protocolConditions: qHTS inhibition; series mostly up to 115 µM
From the text: National Center for Advancing Translational Sciences [NCATS] Division of Preclinical Innovation [DPI] U.S. Environmental Protection Agency [EPA] National Institutes of Environmental Health Sciences [NIEHS] National Toxicology Program [NTP] U.S. Food and Drug Administration [FDA] Acetylcholinesterase (AChE) is the primary cholinesterase in the body that hydrolyzes a key neurotransmitter, acetylcholine. Inhibition of AChE activity can lead to neurotoxicity. […]
Calls of active or inactive are those of the source. Calls follow the shape of the full dose curve.
Please answer using one outcome listed in True for active, False for inactive

Study these solved cases before continuing.
1. CN(N=O)c1ccc([N+](=O)[O-])cc1 : False
2. CC(C)N(CCC(C(N)=O)(c1ccccc1)c1ccccn1)C(C)C (stereo not drawn) : False
3. CC(C)=CCOc1c2occc2cc2ccc(=O)oc12 : False

## Task Outcome? CCCCCCCCCC(=O)O[C@H]1CC[C@H]2[C@@H]3CCC4=CC(=O)CC[C@@H]4[C@H]3CC[C@]12C
## Result False

## Task Field entry: O=C(O)C(F)(F)C(F)(F)C(F)(F)C(F)(F)C(F)(F)C(F)(F)C(F)(F)C(F)(F)C(F)(F)C(F)(F)F
## Result False

## Task Field entry: NC(=O)CI
## Result False

## Task Field entry: N#Cc1cc(I)c(O)c(I)c1
## Result False

## Task Field entry: ClCCCCBr
## Result False

## Task Field entry: CNP(=O)(OC)Oc1ccc(C(C)(C)C)cc1Cl (stereo not drawn)
## Result False

## Task Field entry: O=[N+]([O-])C(Br)(CO)CO
## Result True

## Task Field entry: Cc1ccccc1CCl
## Result False

## Task Field entry: ClCc1ccccc1
## Result False

## Task Field entry: ClCC(Br)CBr (stereo not drawn)
## Result False
